TARGET OR TEST SYSTEM: ADH (Saccharomyces cerevisiae, UniProt P00330)
Sequence (P00330 1-348): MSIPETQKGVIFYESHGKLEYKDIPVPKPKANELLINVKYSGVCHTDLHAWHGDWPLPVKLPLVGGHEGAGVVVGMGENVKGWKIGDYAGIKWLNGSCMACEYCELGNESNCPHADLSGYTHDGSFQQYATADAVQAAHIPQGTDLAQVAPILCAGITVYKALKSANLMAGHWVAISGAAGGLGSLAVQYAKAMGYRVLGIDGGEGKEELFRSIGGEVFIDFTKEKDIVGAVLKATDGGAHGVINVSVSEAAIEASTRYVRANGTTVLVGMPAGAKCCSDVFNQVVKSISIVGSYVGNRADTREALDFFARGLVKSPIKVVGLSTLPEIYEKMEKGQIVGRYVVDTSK
EXPERIMENT: ADH activation activity in vitro (improved assay kit method)
Type: biochemical
EXPERIMENTAL CONDITIONS: synthetic peptides; ADH 0.2 U/mL, NAD+ and ethanol, 37 °C, absorbance 340 nm every 10 s for 10 min; mean ± SD of three parallel experiments
Description: The ADH activation activity in vitro was detected using an improved assay kit method. […] The absorbance at 340 nm was measured using a Varioskan Flash (Thermo Fisher Scientific, Waltham, MA, USA) full-wavelength scanning multimode reader, with readings taken every 10 s for 10 min. […] The reaction kinetics curve was fitted, and the first derivative of the curve at 0 min was calculated as the initial reaction rate. […]
Where no end group is shown, it is not given here.
MEASURED QUANTITY: EC50 (µM)

TGCPVLQ [TGCPVLQ] : 2260

(a) SSNCQPF [SSNCQPF]
(b) QPQQPW [QPQQPW]
# input Hi there, can you help? I need to know whether a or b has lower measured EC50. Response format: the label of the selected entry.
# output a
(a: 1350 µM, b: 2730 µM)

Origin of measurements: paper PMC11013139
